- ASSAYED_SYSTEM: T1, human GIP receptor (human) (UniProt P48546)
- T1 sequence (looked up): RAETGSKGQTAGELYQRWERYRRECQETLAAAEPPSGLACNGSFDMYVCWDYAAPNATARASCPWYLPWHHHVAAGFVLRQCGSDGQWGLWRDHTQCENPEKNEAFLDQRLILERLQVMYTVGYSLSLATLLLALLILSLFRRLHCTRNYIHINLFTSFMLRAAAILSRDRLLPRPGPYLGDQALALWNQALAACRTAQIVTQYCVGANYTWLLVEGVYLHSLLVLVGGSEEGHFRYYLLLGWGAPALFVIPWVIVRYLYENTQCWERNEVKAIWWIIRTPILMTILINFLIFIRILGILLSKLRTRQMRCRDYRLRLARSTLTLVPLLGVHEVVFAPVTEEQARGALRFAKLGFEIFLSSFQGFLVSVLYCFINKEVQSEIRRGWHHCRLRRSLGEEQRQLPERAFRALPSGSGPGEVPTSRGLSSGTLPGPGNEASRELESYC
- METHOD_SUMMARY: cell-based or functional assay
Starred links: 1 amine or outer side, 2 acyl side, 3 side chain; linkers in the order of their positions; H or OH if unused. Non-standard residues stand in square brackets, D forms with d. Groups on a side chain read outwards from the residue. No end group written: not given here. *: point of attachment. C20 diacid = O=C(O)CCCCCCCCCCCCCCCCCCC(=O)*; αMePhe(2-F) = C[C@](N)(Cc1ccccc1F)C(=O)O; γGlu = O=C(O)[C@H](CCC(=O)[*:2])N[*:1]; αMeL = CC(C)C[C@](C)(N)C(=O)O; AEEA = NCCOCCOCC(=O)O; Aib = CC(C)(N)C(=O)O
QUANTITY: Relative cAMP EC50 (pM)

YXQGTXTSDXSIXLDXKAQXXFIEXLLEGGPSSXEPPPE (synthetic construct; SITE 2: note = 2-Aminoisobutyric Acid; SITE 6: note = alpha-methyl-2-fluoro-L-phenylalanine; SITE 10: note = 3-(4-Pyridyl)-L-alanine; SITE 13: note = alpha-methyl-leucine; SITE 16: note = L-ornithine; SITE 17: note = Lysine is chemically modified through conjugation of the epsil) [Example 373]	18.3
YXQGTXTSDXSIXLDKKAQXAFIEYLSEGGPSSGEPPPSGSEE (Aib, αMeF(2F), 4Pal, αMeL, acylated K, C-terminal amide; synthetic construct; SITE 2: note = 2-Aminoisobutyric Acid; SITE 6: note = alpha-methyl-2-fluoro-L-phenylalanine; SITE 10: note = 3-(4-Pyridyl)-L-alanine; SITE 13: note = alpha-methyl-leucine; SITE 17: note = Lysine is chemically modified through conjugation of the epsilon-amino group of the Lysine) [Example 632]	68
Y[Aib]QGT[αMePhe(2-F)]TSDYSKILDKIAQK([AEEA-γGlu-C20 diacid])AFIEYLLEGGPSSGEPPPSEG-NH2 [Example 311]	113
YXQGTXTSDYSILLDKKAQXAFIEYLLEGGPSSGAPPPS (synthetic construct; SITE 2: note = 2-Aminoisobutyric Acid; SITE 6: note = alpha-methyl-L-phenylalanine; SITE 17: note = Lysine is chemically modified through conjugation of the epsilon-amino group of the Lysine side chain with (2-[2-(2-Amino-ethoxy)-ethoxy]-acetyl)2-(gamma-Glu)-CO-(CH2 )16-CO2H; SI) [Example 419]	23.5
YXQGTXTSDXXIXLDXKAQXEFIEXLVEGGPSSGAPPPSGE (synthetic construct; SITE 2: note = 2-Aminoisobutyric Acid; SITE 6: note = alpha-methyl-2-fluoro-L-phenylalanine; SITE 10: note = 3-(4-Pyridyl)-L-alanine; SITE 11: note = alpha-methyl-L-serine; SITE 13: note = alpha-methyl-leucine; SITE 16: note = L-ornithine; SITE 17: note = Lysine is chemically mo) [Example 749]	7.18
YXQGTFTSDXSQXLDXKAQXAFIEXLIAXGPSSGEPPPSGSEE (not fully specified; non-natural residues; Lys acylated γGlu-C18 diacid; C-terminal amide; synthetic construct; SITE 2: note = 2-Aminoisobutyric Acid; SITE 10: note = 3-(4-Pyridyl)-L-alanine; SITE 13: note = alpha-methyl-leucine; SITE 16: note = L-ornithine; SITE 17: note = Lysine is chemically modified through conjugation of the epsilon-amino group of the Lysine side chain with D-Glutami) [Example 1105]	42.7
YXQGTXTSDYXIXLDXKAQXXFIEXLEEGGPSSGEPPPEEG (synthetic construct; SITE 2: note = 2-Aminoisobutyric Acid; SITE 6: note = alpha-methyl-2-fluoro-L-phenylalanine; SITE 11: note = alpha-methyl-L-serine; SITE 13: note = alpha-methyl-leucine; SITE 16: note = L-ornithine; SITE 17: note = Lysine is chemically modified through conjugation of the epsilon) [Example 403]	82.7
YXQGTFTSDFSXXLDKKAQXAFIEYLIEXGPSSGAPPPSGS (synthetic construct; SITE 2: note = 2-Aminoisobutyric Acid; SITE 12: note = (S)-2,3-diaminopropanoic acid; SITE 13: note = alpha-methyl-leucine; SITE 17: note = Lysine is chemically modified through conjugation of the epsilon-amino group of the Lysine side chain with (2-[2-(2-Amino-ethoxy)-ethoxy]-a)) [Example 800]	283
Y[Aib]QGTFTSDYSI[αMeL]LDKQAAKAFVEWLLAGGPSSGEPPPSEG-NH2 (not fully specified (residue 20)) [Example 305]	1000
YXQGTFTSDXSQXLDXKAQXQFIEXLIEXGPSSGAPPPSGSEE (non-natural residues; lipidated Lys; C-terminal amide; synthetic construct; SITE 2: note = 2-Aminoisobutyric Acid; SITE 10: note = 3-(4-Pyridyl)-L-alanine; SITE 13: note = alpha-methyl-leucine; SITE 16: note = L-ornithine; SITE 17: note = Lysine is chemically modified through conjugation of the epsilon-amino group of the Lysine side chain with D-Glutami) [Example 1113]	41.4
YXQGTXTSDXXIXLDXKAQXEFIEXLIEGGPSSGEPPPSGSE ((γGlu)2-C18 diacid on Lys; non-natural residues; amide; synthetic construct; SITE 2: note = 2-Aminoisobutyric Acid; SITE 6: note = alpha-methyl-L-phenylalanine; SITE 10: note = …; SITE 11: note = alpha-methyl-L-serine; SITE 13: note = alpha-methyl-leucine; SITE 16: note = L-ornithine; SITE 17: note = Lysine is chemically modified th) [Example 1173]	9.43
YXQGTFTSDXSXXLDXKAQXAFIEYLIAGGPSSGEPPPSGTEE (non-natural residues, acylated Lys, C-terminal amide; synthetic construct; SITE 2: note = 2-Aminoisobutyric Acid; SITE 10: note = 3-(4-Pyridyl)-L-alanine; SITE 12: note = L-ornithine; SITE 13: note = alpha-methyl-leucine; SITE 16: note = L-ornithine; SITE 17: note = Lysine is chemically modified through conjugation of the epsilon-amino group of the Lys) [Example 985]	340
